# Test system: 922993-354-T-J3-PDC complex spheroids, viability, % test/control
# method.description: Anticancer human tumor 922993-354-T-J3-PDC patient-derived endometrial carcinoma cell line growth inhibition [CLK]
# test.parameters: second compound 0.0316 µM; first compound 0.1 µM; stronger effect = lower value
# From the text: A high-throughput screen of multi-cell type tumor spheroids was designed to identify active combinations of […] and targeted small molecules. Complex spheroids include a stromal component modeled by human endothelial cells (HUVEC) and fibroblasts modeled by human mesenchymal stem cells (MSCs). […] Compounds. […] If the clinical Cmax for an agent had not been determined, the highest concentration tested was 10 microM. […]
assay.endpoint: viability, T/C (%)
I only need the number, in %, no unit after it.

Query: Which measured viability, T/C value corresponds to CC1(C)CCC(CN2CCN(c3ccc(C(=O)NS(=O)(=O)c4ccc(NCC5CCOCC5)c([N+](=O)[O-])c4)c(Oc4cnc5[nH]ccc5c4)c3)CC2)=C(c2ccc(Cl)cc2)C1 + CN1CCN(c2cc(C(=O)Nc3cc4cc(-c5cnn(C)c5)ccc4cn3)ccn2)CC1 ?
Response: 109

Query: Field request: viability, T/C | item: CCc1c2c(nc3ccc(O)cc13)-c1cc3c(c(=O)n1C2)COC(=O)[C@]3(O)CC + CN1CCN(c2cc(C(=O)Nc3cc4cc(-c5cnn(C)c5)ccc4cn3)ccn2)CC1
Response: 16.1

Query: Can you share its viability, T/C? I mean this molecule: C=CC(=O)N1CCN(c2nc(=O)n(-c3c(C)ccnc3C(C)C)c3nc(-c4c(O)cccc4F)c(F)cc23)C(C)C1 (stereo not drawn) + CN1CCN(c2cc(C(=O)Nc3cc4cc(-c5cnn(C)c5)ccc4cn3)ccn2)CC1
Response: 123

###

# System: 922993-354-T-J3-PDC complex spheroids, viability, % test/control
# method.description: Anticancer human tumor 922993-354-T-J3-PDC cell line growth inhibition [CLK];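 further: spheroids exposed to the agents for 7 days before readout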
# test.parameters: second compound 0.316 µM; first compound 10 µM; stronger effect = lower value
# Text: A high-throughput screen of multi-cell type tumor spheroids was designed to identify active combinations of […] and targeted small molecules. Complex spheroids include a stromal component modeled by human endothelial cells (HUVEC) and fibroblasts modeled by human mesenchymal stem cells (MSCs). […] Compounds. […] If the clinical Cmax for an agent had not been determined, the highest concentration tested was 10 microM. […]
Exercise: for every item that follows, state its recorded viability, T/C.

Query: Find the recorded viability, T/C belonging to C=C(F)C(=O)N1CCN(c2nc(OCC3CCCN3C)nc3c2CCN(c2cccc4cccc(Cl)c24)C3)CC1CC#N (centres undefined) + CNC(=O)c1ccc(Nc2nc(OC3CCCC3)c3c(-c4ccc5nc(C)oc5c4)c[nH]c3n2)c(OC)c1 and report it.
Response: 3.61%

Query: Find the recorded viability, T/C belonging to CCCS(=O)(=O)Nc1ccc(F)c(C(=O)c2c[nH]c3ncc(-c4ccc(Cl)cc4)cc23)c1F + CNC(=O)c1ccc(Nc2nc(OC3CCCC3)c3c(-c4ccc5nc(C)oc5c4)c[nH]c3n2)c(OC)c1 and report it.
Response: 40.2%

Query: Field request: viability, T/C | item: CC(CO)NC(=O)c1cc(-c2ccc(Cl)cc2)nn(-c2cnn(C)c2)c1=O (centres undefined) + CN1CCN(c2cc(C(=O)Nc3cc4cc(-c5cnn(C)c5)ccc4cn3)ccn2)CC1
Response: 35.9%

Query: Any idea what its viability, T/C is? The molecule is CC(CO)NC(=O)c1cc(-c2ccc(Cl)cc2)nn(-c2cnn(C)c2)c1=O (centres undefined) + CNC(=O)c1ccc(Nc2nc(OC3CCCC3)c3c(-c4ccc5nc(C)oc5c4)c[nH]c3n2)c(OC)c1
Response: 57.8%

###

For each record, write down the corresponding viability, T/C.
# System: 922993-354-T-J3-PDC complex spheroids, viability, % test/control
# method.description: Anticancer human tumor 922993-354-T-J3-PDC cell line growth inhibition [CLK];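 further: spheroids exposed to the agents for 7 days before readout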
# test.parameters: second compound 1 µM; first compound 10 µM; stronger effect = lower value
The figure you give is taken to be in %; do not add the unit.

Query: Give the measured viability, T/C of C=C(F)C(=O)N1CCN(c2nc(OCC3CCCN3C)nc3c2CCN(c2cccc4cccc(Cl)c24)C3)CC1CC#N (stereo not given) + CN1CCN(c2cc(C(=O)Nc3cc4cc(-c5cnn(C)c5)ccc4cn3)ccn2)CC1 .
Response: 1.63

Query: I have this molecule here, COc1cccc2c1C(=O)c1c(O)c3c(c(O)c1C2=O)CC(O)(C(=O)CO)CC3OC1CC(N)C(O)C(C)O1 (stereo not given) + CNC(=O)c1ccc(Nc2nc(OC3CCCC3)c3c(-c4ccc5nc(C)oc5c4)c[nH]c3n2)c(OC)c1 , and I need its recorded viability, T/C.
Response: 3.3

Query: Request the reported viability, T/C associated with CC(=O)O[C@H]1C(=O)[C@@]2(C)[C@H]([C@H](OC(=O)c3ccccc3)[C@]3(O)C[C@H](OC(=O)[C@H](O)[C@@H](NC(=O)c4ccccc4)c4ccccc4)C(C)=C1C3(C)C)[C@]1(OC(C)=O)CO[C@@H]1C[C@@H]2O + CN1CCN(c2cc(C(=O)Nc3cc4cc(-c5cnn(C)c5)ccc4cn3)ccn2)CC1
Response: 0.07

Query: Requested read-out: viability, T/C. Entry: Nc1ccccc1NC(=O)c1ccc(CNC(=O)OCc2cccnc2)cc1 + CN1CCN(c2cc(C(=O)Nc3cc4cc(-c5cnn(C)c5)ccc4cn3)ccn2)CC1
Response: 1.83

Query: State the recorded viability, T/C for this entry: C=CC(=O)N1CCN(c2nc(=O)n(-c3c(C)ccnc3C(C)C)c3nc(-c4c(O)cccc4F)c(F)cc23)C(C)C1 (stereo not given) + CN1CCN(c2cc(C(=O)Nc3cc4cc(-c5cnn(C)c5)ccc4cn3)ccn2)CC1
Response: 0.12

###

# Tested on: 922993-354-T-J3-PDC complex spheroids, viability, % test/control
# method.description: Anticancer human tumor 922993-354-T-J3-PDC cell line growth inhibition [CLK];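 further: spheroids exposed to the agents for 7 days before readout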
# test.parameters: curve of first compound; second compound 0.1 µM
assay.endpoint: pIC50
Please treat pIC50 as minus the base-10 logarithm of the molar concentration.

Query: Item under review: C=C(F)C(=O)N1CCN(c2nc(OCC3CCCN3C)nc3c2CCN(c2cccc4cccc(Cl)c24)C3)CC1CC#N (configuration not stated) + CN1CCN(c2cc(C(=O)Nc3cc4cc(-c5cnn(C)c5)ccc4cn3)ccn2)CC1 . Reported pIC50?
Response: 5.25

Query: What value of measured pIC50 is listed for CC(Nc1ccc2c(c1)OCCn1cc(N3C(=O)OCC3C(F)F)nc1-2)C(N)=O (configuration not stated) + CNC(=O)c1ccc(Nc2nc(OC3CCCC3)c3c(-c4ccc5nc(C)oc5c4)c[nH]c3n2)c(OC)c1 ?
Response: 5.38

Query: Which pIC50 is listed for Nc1ccccc1NC(=O)c1ccc(CNC(=O)OCc2cccnc2)cc1 + CN1CCN(c2cc(C(=O)Nc3cc4cc(-c5cnn(C)c5)ccc4cn3)ccn2)CC1 ?
Response: 5.33

Query: Recorded pIC50 of O=c1[nH]cc(F)c(=O)[nH]1 + CNC(=O)c1ccc(Nc2nc(OC3CCCC3)c3c(-c4ccc5nc(C)oc5c4)c[nH]c3n2)c(OC)c1 , please.
Response: 5.30

Query: Look up pIC50 for this molecule: COc1c(OCCCN2CCOCC2)ccc2c3n(c(=NC(=O)c4cnc(N)nc4)nc12)CCN3 + CN1CCN(c2cc(C(=O)Nc3cc4cc(-c5cnn(C)c5)ccc4cn3)ccn2)CC1
Response: 6.82

Query: Return reported pIC50; argument: NC(=O)C(=Cn1cnc(-c2cc(C(F)(F)F)cc(C(F)(F)F)c2)n1)c1cncnc1 + CN1CCN(c2cc(C(=O)Nc3cc4cc(-c5cnn(C)c5)ccc4cn3)ccn2)CC1
Response: 6.76

Query: # query: pIC50 of entry O=c1[nH]cc(F)c(=O)[nH]1 + CN1CCN(c2cc(C(=O)Nc3cc4cc(-c5cnn(C)c5)ccc4cn3)ccn2)CC1
Response: 5.36

Query: Suppose we examine the molecule CCc1c2c(nc3ccc(O)cc13)-c1cc3c(c(=O)n1C2)COC(=O)[C@]3(O)CC + CNC(=O)c1ccc(Nc2nc(OC3CCCC3)c3c(-c4ccc5nc(C)oc5c4)c[nH]c3n2)c(OC)c1 ; what pIC50 value has been reported?
Response: 7.64

###

# System: 922993-354-T-J3-PDC complex spheroids, viability, % test/control
# method.description: Anticancer human tumor 922993-354-T-J3-PDC cell line growth inhibition [CLK];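 further: spheroids exposed to the agents for 7 days before readout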
# test.parameters: second compound 0.1 µM; first compound 1 µM; stronger effect = lower value
# From the text: A high-throughput screen of multi-cell type tumor spheroids was designed to identify active combinations of […] and targeted small molecules. Complex spheroids include a stromal component modeled by human endothelial cells (HUVEC) and fibroblasts modeled by human mesenchymal stem cells (MSCs). […] Compounds. […] If the clinical Cmax for an agent had not been determined, the highest concentration tested was 10 microM. […]
assay.endpoint: viability, T/C (%)
// note: answer is a bare numeric in %

Query: I have this compound here, C#Cc1c(F)ccc2cc(O)cc(-c3ncc4c(N5CC6CCC(C5)N6)nc(OCC56CCCN5CC(F)C6)nc4c3F)c12 (stereo unspecified) + CN1CCN(c2cc(C(=O)Nc3cc4cc(-c5cnn(C)c5)ccc4cn3)ccn2)CC1 , and I need its recorded viability, T/C.
Response: 92.4

Query: Quick one: viability, T/C of C=CC(=O)N1CCN(c2nc(=O)n(-c3c(C)ccnc3C(C)C)c3nc(-c4c(O)cccc4F)c(F)cc23)C(C)C1 (stereo unspecified) + CN1CCN(c2cc(C(=O)Nc3cc4cc(-c5cnn(C)c5)ccc4cn3)ccn2)CC1 ?
Response: 91.6

Query: // query viability, T/C value for entry COc1ccc([C@@H](O)c2cc(-c3ncnc4cc(N5CCOCC5)ccc34)c(F)cc2Cl)nn1 + CN1CCN(c2cc(C(=O)Nc3cc4cc(-c5cnn(C)c5)ccc4cn3)ccn2)CC1
Response: 91.5

Query: Item CC(CO)NC(=O)c1cc(-c2ccc(Cl)cc2)nn(-c2cnn(C)c2)c1=O (stereo unspecified) + CN1CCN(c2cc(C(=O)Nc3cc4cc(-c5cnn(C)c5)ccc4cn3)ccn2)CC1 has what recorded viability, T/C?
Response: 69.5

Query: Quick check: viability, T/C of CCCS(=O)(=O)Nc1ccc(F)c(C(=O)c2c[nH]c3ncc(-c4ccc(Cl)cc4)cc23)c1F + CN1CCN(c2cc(C(=O)Nc3cc4cc(-c5cnn(C)c5)ccc4cn3)ccn2)CC1 ?
Response: 87.6

Query: viability, T/C lookup needed for CC(=O)O[C@H]1C(=O)[C@@]2(C)[C@H]([C@H](OC(=O)c3ccccc3)[C@]3(O)C[C@H](OC(=O)[C@H](O)[C@@H](NC(=O)c4ccccc4)c4ccccc4)C(C)=C1C3(C)C)[C@]1(OC(C)=O)CO[C@@H]1C[C@@H]2O + CNC(=O)c1ccc(Nc2nc(OC3CCCC3)c3c(-c4ccc5nc(C)oc5c4)c[nH]c3n2)c(OC)c1 , thanks.
Response: 77.1

Query: Fill in: viability, T/C of C=C(F)C(=O)N1CCN(c2nc(OCC3CCCN3C)nc3c2CCN(c2cccc4cccc(Cl)c24)C3)CC1CC#N (stereo unspecified) + CN1CCN(c2cc(C(=O)Nc3cc4cc(-c5cnn(C)c5)ccc4cn3)ccn2)CC1 is ___
Response: 87

Query: // returns reported viability, T/C for input COc1c(OCCCN2CCOCC2)ccc2c3n(c(=NC(=O)c4cnc(N)nc4)nc12)CCN3 + CNC(=O)c1ccc(Nc2nc(OC3CCCC3)c3c(-c4ccc5nc(C)oc5c4)c[nH]c3n2)c(OC)c1
Response: 15

Query: Could you tell me which viability, T/C is on file for CC(CO)NC(=O)c1cc(-c2ccc(Cl)cc2)nn(-c2cnn(C)c2)c1=O (stereo unspecified) + CNC(=O)c1ccc(Nc2nc(OC3CCCC3)c3c(-c4ccc5nc(C)oc5c4)c[nH]c3n2)c(OC)c1 ?
Response: 103

Query: Requested field: viability, T/C. Item: C=CC(=O)N1CCN(c2nc(=O)n(-c3c(C)ccnc3C(C)C)c3nc(-c4c(O)cccc4F)c(F)cc23)C(C)C1 (stereo unspecified) + CNC(=O)c1ccc(Nc2nc(OC3CCCC3)c3c(-c4ccc5nc(C)oc5c4)c[nH]c3n2)c(OC)c1
Response: 103

Query: Which measured viability, T/C value corresponds to O=c1[nH]cc(F)c(=O)[nH]1 + CNC(=O)c1ccc(Nc2nc(OC3CCCC3)c3c(-c4ccc5nc(C)oc5c4)c[nH]c3n2)c(OC)c1 ?
Response: 98.2

Query: I have this compound here, C#Cc1c(F)ccc2cc(O)cc(-c3ncc4c(N5CC6CCC(C5)N6)nc(OCC56CCCN5CC(F)C6)nc4c3F)c12 (stereo unspecified) + CNC(=O)c1ccc(Nc2nc(OC3CCCC3)c3c(-c4ccc5nc(C)oc5c4)c[nH]c3n2)c(OC)c1 , and I need its recorded viability, T/C.
Response: 107

Query: viability, T/C for O=C(c1cc(Cc2n[nH]c(=O)c3ccccc23)ccc1F)N1CCN(C(=O)C2CC2)CC1 + CN1CCN(c2cc(C(=O)Nc3cc4cc(-c5cnn(C)c5)ccc4cn3)ccn2)CC1 ?
Response: 87

Query: Sample COc1cccc2c1C(=O)c1c(O)c3c(c(O)c1C2=O)CC(O)(C(=O)CO)CC3OC1CC(N)C(O)C(C)O1 (stereo unspecified) + CNC(=O)c1ccc(Nc2nc(OC3CCCC3)c3c(-c4ccc5nc(C)oc5c4)c[nH]c3n2)c(OC)c1 — what was its viability, T/C?
Response: 85.7

Query: Which viability, T/C value belongs to CC(Nc1ccc2c(c1)OCCn1cc(N3C(=O)OCC3C(F)F)nc1-2)C(N)=O (stereo unspecified) + CNC(=O)c1ccc(Nc2nc(OC3CCCC3)c3c(-c4ccc5nc(C)oc5c4)c[nH]c3n2)c(OC)c1 ?
Response: 74.5

Query: Which viability, T/C reading was recorded for the compound CC1(C)CCC(CN2CCN(c3ccc(C(=O)NS(=O)(=O)c4ccc(NCC5CCOCC5)c([N+](=O)[O-])c4)c(Oc4cnc5[nH]ccc5c4)c3)CC2)=C(c2ccc(Cl)cc2)C1 + CN1CCN(c2cc(C(=O)Nc3cc4cc(-c5cnn(C)c5)ccc4cn3)ccn2)CC1 ?
Response: 97.7

Where do the numbers come from? From PubChem BioAssay AID2060606.
